target: human CYP11B1 (Homo sapiens, UniProt P15538); test: G-402 cellular enzyme assay, human CYP11B1 (cortisol release, HTRF); conditions: G-402 cells expressing human CYP11B1; 1 μM Deoxycortisol
Sequence (P15538 25-503): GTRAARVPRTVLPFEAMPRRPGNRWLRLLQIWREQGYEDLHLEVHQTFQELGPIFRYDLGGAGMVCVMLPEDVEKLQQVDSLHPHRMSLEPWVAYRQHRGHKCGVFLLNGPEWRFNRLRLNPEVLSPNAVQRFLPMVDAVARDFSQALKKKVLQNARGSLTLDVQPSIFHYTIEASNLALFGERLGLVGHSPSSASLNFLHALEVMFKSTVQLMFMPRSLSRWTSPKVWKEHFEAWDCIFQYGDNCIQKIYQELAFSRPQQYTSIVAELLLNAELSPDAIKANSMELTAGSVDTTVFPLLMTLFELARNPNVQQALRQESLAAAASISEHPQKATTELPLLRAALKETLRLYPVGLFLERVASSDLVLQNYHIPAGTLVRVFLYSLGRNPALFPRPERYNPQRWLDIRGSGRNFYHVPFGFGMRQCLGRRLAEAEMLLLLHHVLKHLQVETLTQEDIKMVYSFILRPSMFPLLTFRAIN
endpoint_name: EC50 (nM)

Illustrative cases are given below, each with its answer.
query_smiles	EC50 (nM)
CN1C(=O)CCc2cc(-c3cncc(Cn4cccnc4=O)c3)ccc21	5570
CN1C(=O)CCc2cc(-c3cncc(Cn4cccc(C(F)(F)F)c4=O)c3)ccc21	738
CN1C(=O)CCc2cc(-c3cncc(Cn4c(=O)sc5ccccc54)c3)ccc21	177
CN1C(=O)CCc2cc(-c3cncc(Cn4cc(F)ccc4=O)c3)ccc21	935
Cc1ccn(Cc2cncc(-c3ccc4c(c3)CCC(=O)N4C)c2)c(=O)c1	1050

A: CN1C(=O)CCc2cc(-c3cncc(Cn4cccc(Cl)c4=O)c3)ccc21
B: CN1C(=O)CCc2cc(-c3cncc(Cn4cc(C(F)(F)F)ccc4=O)c3)ccc21
C: CN1C(=O)CCc2cc(-c3cncc(Cn4cccc(F)c4=O)c3)c(F)cc21
[in] Sort the molecules on EC50; start with the lowest figure. Answer by listing the labels in the order asked for.
[out] C, B, A
